assay: Oral administration of topotecan in capsules (control, microgel, microgel + L92); format: in vivo, rats; conditions: rat; normal rats, oral gelatin capsules, 15 mg/kg, plasma; read-out: Cmax, topotecan Lactone
observation_type: Cmax

- compound: "CC[C@@]1(O)C(=O)OCc2c1cc1n(c2=O)Cc2cc3c(CN(C)C)c(O)ccc3nc2-1 [Topotecan, topotecan]"
  observation_type: "Cmax"
  value: "9.8 ng/mL"

###

assay: Solubility of topotecan in formulations with Pluronic P85; type: physicochemical; settings: 1% Pluronic P85 in PBS, aqueous with cosolvent or surfactant or cyclodextrin, thermodynamic from solid, P85 1% in PBS pH 7.2, room temperature, read-out: Topotecan concentration (solubility)

- smiles_text: "CC[C@@]1(O)C(=O)OCc2c1cc1n(c2=O)Cc2cc3c(CN(C)C)c(O)ccc3nc2-1"
  measurement_units: "µg/mL"
  solubility at 1 h: 95

###

test: Oral administration of topotecan in capsules (control, microgel, microgel + L92); assay type: in vivo, rats; details: rat; normal rats, oral gelatin capsules, 15 mg/kg, plasma; read-out: AUC0-10 h, topotecan Lactone

- compound: "CC[C@@]1(O)C(=O)OCc2c1cc1n(c2=O)Cc2cc3c(CN(C)C)c(O)ccc3nc2-1 [Topotecan, topotecan]"
  AUC(0-t): "52.8 ng·h/mL"

###

experiment: Plasma pharmacokinetics of topotecan upon i.v. administration; assay type: in vivo; conditions: rat, iv, normal rats, dose of 15 mg/mL, read-out: Cmax, topotecan Lactone

- smiles_text: "CC[C@@]1(O)C(=O)OCc2c1cc1n(c2=O)Cc2cc3c(CN(C)C)c(O)ccc3nc2-1"
  measurement_units: "ng/mL"
  Cmax: 321
